Value source: patent US20220112288A1

Each entry below lists one item and its recorded pKd value.
Test system: T1, Recombinant human CD4 (R&D Systems, Cat. 10327-CD) (human, UniProt P01730 26-390, limits assumed)
T1 construct: Soluble analyte in the Octet assay
Assay details: BLI Octet, mAb on anti-mouse Fc sensor, CD4 100/50/25 nM, 1:1 global fit;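 also: antibodies loaded at 10 µg/mL, an unrelated mouse-derived antibody served as internal reference control, association and dissociation phases fitted after Savitzky-Golay smoothing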
Interpret pKd as the negative base-10 log of the concentration measured in mol/L.

Binder	pKd
75110_05A11A (antibody, V domains shown, Tested as antibody purified from AlivaMab Mouse hybridoma supernatant (captured by anti-mouse IgG Fc)) VH: EVQLVESGGGLVKPGGSLTLSCAASGFTFSNTWMSWVRQAPGKGLEWVGRIKSKIDGGTTDYAAPVKGRFTISRDDSKNTLYLQMNSLKTEDTAVYYCTTSGTYSSGWGLFDYWGQGTLVTVSS VL: DIQMTQSPSSLSASVGDRVTITCQASQDISNYLNWYQQKPGKAPKLLIYDTSNLEAGVPSRFSGSGSGTHFTLTISSLQPEDIATYYCQQYDNLPFTFGGGTRVEIK	7.74
75110_01J09A (antibody, V domains shown, Tested as antibody purified from AlivaMab Mouse hybridoma supernatant (captured by anti-mouse IgG Fc)) VH: EVQLVESGGGLVQPGGSLRLSCVASGFTFSSYWMSWVRQAPGKGLEWVANTKEDGSDKYYVDSVKGRFTICRDNAKNSLYLQMNSLRAEDTAVYYCAREGGQWLALDYWGQGTLVTVSS VL: DIQMTQSPSSVSASVGDRVTINCRASQGISSWLAWYQQKPGKAPNLLIFGASSLQSGVPSRFSGSGFGTDFSLTITTLQPEDFATYHCQQANSFPWTFGQGTKVEIK	6.89

Now consider the entry below.
Query block: Check the records and state pKd for 75110_01J17A (antibody, V domains shown, Tested as antibody purified from AlivaMab Mouse hybridoma supernatant (captured by anti-mouse IgG Fc)) VH: EVQLVESGGGLVQPGGSLRLSCAASGFTFSSYDMHWVRQGTGKGLEWVSTIGTADDTYYPGSVKGRFTISRENAENSLYLQMNSLRAGDTAVYYCARGGDYYYGMDVWGQGTTVTVSS VL: EIVLAQSPGTLSLSPGERATLSCRASQSVYISYLAWYQQKPGQAPRLLIYGASSRATGIPDRFSGSGSGTDFTLTITRLEPEDFAVYYCQQFGSSPFTFGPGTKVDFK
Result block: 8.55
